Tested on: A498 renal
Assay: NCI-60 one-dose screen, 48 h (100 = growth as untreated, 0 = no growth, -100 = all killed)
Conditions: 10 µM unless noted
About 83,000 compounds went through this panel and 20% of them were active in at least one assay; those are over-represented in the sample as a whole.
Recorded growth for the following molecules
Output spec: scalar in %, unitless text.

Prompt: Form field: reported growth of CC(C)(CO)N(CCO)CCO
Completion: 111

Prompt: Form field: reported growth of N#Cc1nc2c(S(=O)(=O)c3ccccc3)c(N)n(Cc3cccnc3)c2nc1C#N
Completion: 104

Prompt: Form field: reported growth of CCOC(=O)c1c(C)nn(CC(O)c2ccccc2)c1NC(=O)Nc1cccc(F)c1 (centres undefined)
Completion: 70.9

Prompt: Form field: reported growth of COc1cc2c(/C=C3\C(=O)Nc4ccccc43)c(C(=O)O)[nH]c2cc1C
Completion: 136

Prompt: Form field: reported growth of CCOC(=O)n1cc(-c2nonc2-c2cn(C)c3ccccc23)c2ccccc21
Completion: 15.2

Prompt: Form field: reported growth of Cc1ccc(-c2nc(C#N)c(S(=O)(=O)NCCO)o2)cc1
Completion: 108

Prompt: Form field: reported growth of CC(C)CCSc1nc(Nc2ccccc2)c(C#N)c(-c2ccccc2)n1
Completion: -8.82

Prompt: Form field: reported growth of COc1cc2cc(Oc3ccc(NC(=O)Nc4ccccc4)cc3)c(C)nc2cc1OCCN1CCCCC1
Completion: 55.4

Prompt: Form field: reported growth of COC(=O)c1c2c(c(C)[n+]([O-])c1C)C(=O)C=CC2=O
Completion: 60.8

The origin of these recorded values is PubChem BioAssay (NCI).
